Listing of entries alongside the reported HLM QH.
assayProtocol: Metabolic (microsomal) stability assay, human liver microsomes (HLM)
Format: in vitro ADME
measurementContext: predicted clearance as percent of liver blood flow, 1 μM

>  <smilesData>
C[C@H](Oc1cc(-c2cnsc2)nc(-c2noc3c2CCC[C@@]32CCCc3sc(N)c(C#N)c32)n1)[C@@H]1CCCN1C

>  <HLM QH>
<24%

$$$$
>  <smilesData>
C[C@H](Oc1cc([C@H]2CCN(C)C2)nc(-c2noc3c2CCC[C@@]32CCCc3sc(N)c(C#N)c32)n1)[C@@H]1CCCN1C

>  <HLM QH>
<24%

$$$$
>  <smilesData>
COCCNC(=O)c1ccn(-c2cc(O[C@@H](C)[C@@H]3CCCN3C)nc(-c3noc4c3CCC[C@@]43CCCc4sc(N)c(C#N)c43)n2)n1

>  <HLM QH>
44%

$$$$
>  <smilesData>
C[C@H](Oc1cc(N2C[C@H](C)N[C@@H](C)C2)nc(-c2noc3c2CCC[C@@]32CCCc3sc(N)c(C#N)c32)n1)[C@@H]1CCCN1C

>  <HLM QH>
<24%

$$$$
>  <smilesData>
C[C@H](O)Cn1ccc(-c2cc(O[C@@H](C)[C@@H]3CCCN3C)nc(-c3onc4c3CCC[C@@]43CCCc4sc(N)c(C#N)c43)n2)n1

>  <HLM QH>
<24%

$$$$

Now look at this one.
Value of measured HLM QH for the entry CC(=O)N1CCN(c2cc(O[C@@H](C)[C@@H]3CCCN3C)nc(-c3noc4c3CCC[C@@]43CCCc4sc(N)c(C#N)c43)n2)CC12CC2 : <24%

Ref: patent US20240174690A1
